Test: Cytotoxicity against mouse C2C12 cells assessed as inhibition of cell proliferation at 30 umol/L after 72 hrs by MTT assay relative to control
Type: cell-based
readout_label: inhibition at 72 h, 30 µM

Fill blank: measured inhibition at 72 h, 30 µM of the compound Cc1ncc([N+](=O)[O-])n1CC(O)CNC1CCN(c2c(F)cc3c(=O)c(C(=O)O)cn(C4CC4)c3c2Cl)C1 (stereo unspecified) is ____.
22.4%

---

Assay: Cytotoxicity against HEK293 cells assessed as inhibition of cell proliferation at 3 x 10^-1 umol/L after 72 hrs by MTT assay relative to control
Assay type: cell-based
Settings: human
readout_label: inhibition at 72 h, 0.3 umol/L (%)
Write the answer as a number in %, unit excluded.

Fill blank: measured inhibition at 72 h, 0.3 umol/L of the compound Cc1ncc([N+](=O)[O-])n1CC(O)CNC1CCN(c2c(F)cc3c(=O)c(C(=O)O)cn(C4CC4)c3c2Cl)C1 (stereo unspecified) is ____.
4.1
